Measured apparent Kd of individual entries
Test system: MS2 coat protein
Assay: apparent Kd, MS2 coat protein; higher = weaker binding; RNA-MaP array; tryptophan 2.4 mM where present
Conditions: ligand present: tryptophan; designed as: ON switch for tryptophan
# value in nM; strip the unit string

Reference set, count: 3
seq string: GCGGAAUAAUCGGCCGCCACUAUGAGACAGGAAACUGUCACAUGAGGAUCACCCAUGUAUCCUCAUAGGACCGGGAUUAAAACGC
tested system: MS2 coat protein
unit: nM
reported measurement: 19.4

seq string: GGUACAUGAGGAUCACCCAUGUAUUGGUACCGAGGACCGGUACGGCCGCCACUCGCAUGACAUGAGGAUCACCCAUGUGAAACCU
tested system: MS2 coat protein
unit: nM
reported measurement: 66.5

seq string: UUACCGUAAGGUAUACCGGUCUACAAUAAUCGAGGACCGGUACGGCCGCCACUCGAUGUGUAAUCACAUGAGGAUCACCCAUGUA
tested system: MS2 coat protein
unit: nM
reported measurement: 18.5

We next turn to a different sequence, shown below.
Given GCCGGUACGUCGGCAAAGCCGAUGUGCCAGCGAGGACCGGUACGGCCGCCACUCGUACAUGAGGAUCACCCAUGUCCGGUCCGGC , state its recorded apparent Kd.
49

* * *

System: MS2 coat protein
Test: apparent Kd, MS2 coat protein; higher = weaker binding; RNA-MaP array; tryptophan 2.4 mM where present
Conditions: ligand present: tryptophan; designed as: OFF switch for tryptophan
Please enter Fulfilled where apparent Kd is greater than or equal to 40 nM, and Not fulfilled where it is lower.

Would you please look over these solved cases?
seq string: GGGUCAGGCGCGGCCGCCACUGCGGUGAUGUGACAUGAGGAUCACCCAUGUUGUCAUGUGGCACAUAGGACCGGGUGCCUGGCCC
tested system: MS2 coat protein
cat: Not fulfilled

seq string: GAUAUUUGAAAACAAAUAUCAGUGGGUGAACGAGGACCGGUACGGCCGCCACUCGGACAUGAGGAUCACCCAUGUCCAUGUGAAA
tested system: MS2 coat protein
cat: Not fulfilled

seq string: CCGCCUGCCUCACAUGAGGAUCACCCAUGUCGAGGACCGGUACGGCCGCCACUCGUCGUCGGUAAUACAGGCAUUGAAUAAUAUA
tested system: MS2 coat protein
cat: Fulfilled

seq string: GGAUAGGACACGGCCGCCACUAGCUAGGAUACUAGCAACAUUUCCUCACAUGAGGAUCACCCAUGUAGGACCGGGUGUCCUAUCG
tested system: MS2 coat protein
cat: Fulfilled

Then this sequence:
# check: apparent Kd of CCAUAAGUACCGGUCCUCAGAUCCUCAUGACGAGGACCGGUACGGCCGCCACUCGAAACAUGAGGAUCACCCAUGUAAUAAUACC is greater than or equal to 40 nM
Not fulfilled

* * *

Test system: MS2 coat protein
Experiment: apparent Kd, MS2 coat protein; higher = weaker binding; RNA-MaP array
Conditions: designed as: OFF switch for flavin mononucleotide; no ligand
Kindly return Satisfied if reported apparent Kd is no lower than 30 nM; return Not satisfied if it is lower.

seq string: CUAGUGUGAGGAUAUGAGUCAACCUUUUAGUUCUAAGGAGAUCAGAAGGCACAUGAGGAUCACCCAUGUCAGAA
cat: Satisfied
--
seq string: UGUUGGGAAACAGGAUAUGAGCUUAAAGCACAAGGGAUUCGCACAUGAGGAUCACCCAUGUAACGUCAGAAGGGUUUGUUUGUA
cat: Satisfied

Exam item: decide whether the reported apparent Kd for CAUGGAUAAGGAUAUACAUGAGGAUCACCCAUGUAUAGAAGGAUACAAAGAUAAGAAUGUAGAAGGUAUUGGUU is at least 30 nM.
Not satisfied

Another sequence to check: UAAAUUGAAGGAUAUACAUGAGGAUCACCCAUGUAAGAAAUACAUGAAAAUAACAACAGUAGAAGGUCAAAACU
Not satisfied

# iterate: AAGCGUUCAGGAUAUACAUGAGGAUCACCCAUGUAAUGGAUGCUGCAUUACCGGGCGAGUAGAAGGGAAACGUC
Not satisfied

Same read-out for AUUCCACAUGAGGAUCACCCAUGUUCUGCUCUGCAUGGAAACAGAAGGAUUCGCGUCAGGUCGAAAUAGGAUAUGUUGUCAAAG ?
Satisfied

Moving on to the next sequence: CGACAUUAGUAGAAGGAGGAGUAGCGAUAGAGCCUAGGAUAUACGAACAAAUACAUGAGGAUCACCCAUGUUGACGAUCCAUCA
Satisfied

# credit: the EternaBench riboswitch data
